Readings of growth for the listed molecules
Tested on: E. coli TESEC Mtb Alr
protocolDetails: growth (OD600 after 10 h); higher = more growth (less inhibition)
setupConditions: arabinose 10000000 nM; compound 0.1 mM; raw OD600 reference: median of DMSO wells […], cell-free background 0.052
Where a name gives a salt, the structure may show the parent alone.

{"molecule": "CC(=O)OCC1=C(C(=O)O)N2C(=O)[C@@H](NC(=O)Cc3cccs3)[C@H]2SC1 [Cephalothin sodium salt]", "growth": 0.35}
{"molecule": "C[C@]12CC[C@@H]3c4ccc(O)cc4CC[C@H]3[C@@H]1CC[C@@H]2O", "growth": 0.218}
{"molecule": "C[C@H]1[C@H](NC(=O)/C(=N\\OC(C)(C)C(=O)O)c2csc(N)n2)C(=O)N1S(=O)(=O)O", "growth": 0.277}
{"molecule": "CCCC(CCC)C(=O)O", "growth": 0.358}
{"molecule": "COc1ccc2cc([C@H](C)C(=O)O)ccc2c1", "growth": 0.293}
{"molecule": "Cc1cc(NC(=O)C2=C(O)c3ccccc3S(=O)(=O)N2C)no1", "growth": 0.299}
{"molecule": "CC(C)OC(=O)C(C)(C)Oc1ccc(C(=O)c2ccc(Cl)cc2)cc1 [Fenofibrate]", "growth": 0.089}
{"molecule": "CCOC(=O)[N-]c1c[n+](N2CCOCC2)no1", "growth": 0.313}
{"molecule": "CO[C@H]1/C=C/O[C@@]2(C)Oc3c(C)c(O)c4c(O)c(c(/C=N/N5CCN(C)CC5)c(O)c4c3C2=O)NC(=O)/C(C)=C\\C=C\\[C@H](C)[C@H](O)[C@@H](C)[C@@H](O)[C@@H](C)[C@H](OC(C)=O)[C@@H]1C", "growth": 0.0524}
{"molecule": "Cc1ccc(S(=O)(=O)NC(=O)NN2CC3CCCC3C2)cc1 (stereo unspecified) [Gliclazide]", "growth": 0.372}
{"molecule": "Clc1ccc(COC(Cn2ccnc2)c2ccc(Cl)cc2Cl)cc1 (stereo unspecified) [Econazole nitrate]", "growth": 0.0553}
{"molecule": "COc1ccccc1N1CCN(CCCCNC(=O)c2ccc3ccccc3c2)CC1", "growth": 0.181}
{"molecule": "C=C1c2c(Cl)ccc(O)c2C(O)=C2C(=O)[C@]3(O)C(O)=C(C(N)=O)C(=O)[C@@H](N(C)C)[C@@H]3[C@@H](O)[C@H]12.O=C(O)c1cc(S(=O)(=O)O)ccc1O [Meclocycline sulfosalicylate]", "growth": 0.0561}
{"molecule": "NS(=O)(=O)c1cc2c(cc1Cl)N=C(CSCc1ccccc1)NS2(=O)=O [Benzthiazide]", "growth": 0.314}
{"molecule": "CC=CC(=O)N(CC)c1ccccc1C", "growth": 0.32}
{"molecule": "CN(C)CCC=C1c2ccccc2CCc2ccccc21 [Amitryptiline hydrochloride]", "growth": 0.182}

---

Tested on: E. coli TESEC Mtb Alr
protocolDetails: growth (OD600 after 10 h); higher = more growth (less inhibition)
setupConditions: arabinose 1000 nM; compound 0.1 mM; raw OD600 reference: median of DMSO wells 0.294, cell-free background 0.041
Counter-ions that a name gives are not always drawn.
Overview of reported growth across a group of molecules:
readoutLabel: growth

{"molecule": "CC[N+](C)(CC)CCC[n+]1c(-c2ccccc2)c2cc(N)ccc2c2ccc(N)cc21 [Propidium iodide]", "testTarget": "E. coli TESEC Mtb Alr", "recordedNumber": 0.135}
{"molecule": "O=C(NCCO[N+](=O)[O-])c1cccnc1", "testTarget": "E. coli TESEC Mtb Alr", "recordedNumber": 0.3}
{"molecule": "Cc1ccc(C)c(OCCCC(C)(C)C(=O)O)c1", "testTarget": "E. coli TESEC Mtb Alr", "recordedNumber": 0.258}
{"molecule": "CN(C)/N=N/c1[nH]cnc1C(N)=O", "testTarget": "E. coli TESEC Mtb Alr", "recordedNumber": 0.259}
{"molecule": "Cc1c(OCC(F)(F)F)ccnc1C[S+]([O-])c1nc2ccccc2[nH]1 (stereo not drawn)", "testTarget": "E. coli TESEC Mtb Alr", "recordedNumber": 0.164}
{"molecule": "CC(CNC1CCCCC1)OC(=O)c1ccccc1 (stereo not drawn) [Hexylcaine hydrochloride]", "testTarget": "E. coli TESEC Mtb Alr", "recordedNumber": 0.303}
{"molecule": "Oc1ncnc2[nH]ncc12", "testTarget": "E. coli TESEC Mtb Alr", "recordedNumber": 0.283}
{"molecule": "C#C[C@]1(O)CC[C@H]2[C@@H]3CCC4=CC(=O)CC[C@@H]4[C@H]3CC[C@@]21CC [Norgestrel-(-)-D]", "testTarget": "E. coli TESEC Mtb Alr", "recordedNumber": 0.271}
{"molecule": "CNCCc1ccccn1 [Betahistine mesylate]", "testTarget": "E. coli TESEC Mtb Alr", "recordedNumber": 0.302}
{"molecule": "CC1(C)S[C@@H]2[C@H](NC(=O)Cc3ccccc3)C(=O)N2[C@H]1C(=O)O [Benzylpenicillin sodium]", "testTarget": "E. coli TESEC Mtb Alr", "recordedNumber": 0.282}
{"molecule": "c1ccc([C@H]2CN3CCSC3=N2)cc1 [Levamisole hydrochloride]", "testTarget": "E. coli TESEC Mtb Alr", "recordedNumber": 0.286}
{"molecule": "NC[C@H]1O[C@H](O[C@H]2[C@H](O)[C@@H](O[C@H]3O[C@H](CO)[C@@H](O)[C@H](N)[C@H]3O)[C@H](N)C[C@@H]2N)[C@H](N)C[C@@H]1O", "testTarget": "E. coli TESEC Mtb Alr", "recordedNumber": 0.0407}
{"molecule": "CC1=Nc2ccc(Cl)cc2S(=O)(=O)N1 [Diazoxide]", "testTarget": "E. coli TESEC Mtb Alr", "recordedNumber": 0.276}
{"molecule": "CCOC1O[C@H]([C@@H](COCc2ccccc2)OCc2ccccc2)[C@H](OCc2ccccc2)[C@H]1O (stereo partly drawn) [Tribenoside]", "testTarget": "E. coli TESEC Mtb Alr", "recordedNumber": 0.29}
{"molecule": "NS(=O)(=O)c1cc2c(cc1C(F)(F)F)NC(Cc1ccccc1)NS2(=O)=O (stereo not drawn) [Bendroflumethiazide]", "testTarget": "E. coli TESEC Mtb Alr", "recordedNumber": 0.301}
{"molecule": "CCc1cccc(CC)c1NC(=O)CN(CC(=O)O)CC(=O)O", "testTarget": "E. coli TESEC Mtb Alr", "recordedNumber": 0.295}
{"molecule": "Cc1ccc(NC(=O)c2ccc(CN3CCN(C)CC3)cc2)cc1Nc1nccc(-c2cccnc2)n1", "testTarget": "E. coli TESEC Mtb Alr", "recordedNumber": 0.23}
{"molecule": "CC1=C(CC(=O)O)c2cc(F)ccc2/C1=C\\c1ccc([S+](C)[O-])cc1 (stereo not drawn)", "testTarget": "E. coli TESEC Mtb Alr", "recordedNumber": 0.206}
